Origin of the recorded values: patent US6410585B1

Target: rat PTP1 (Rattus norvegicus, UniProt P20417)
Construct: a C-terminal truncation of rat PTP1 (amino acid residues 1-322); GST (N, cleaved yes); made in house; host or cells: E. coli strain TG-1 (pGEX-2T)
Sequence (P20417 1-322): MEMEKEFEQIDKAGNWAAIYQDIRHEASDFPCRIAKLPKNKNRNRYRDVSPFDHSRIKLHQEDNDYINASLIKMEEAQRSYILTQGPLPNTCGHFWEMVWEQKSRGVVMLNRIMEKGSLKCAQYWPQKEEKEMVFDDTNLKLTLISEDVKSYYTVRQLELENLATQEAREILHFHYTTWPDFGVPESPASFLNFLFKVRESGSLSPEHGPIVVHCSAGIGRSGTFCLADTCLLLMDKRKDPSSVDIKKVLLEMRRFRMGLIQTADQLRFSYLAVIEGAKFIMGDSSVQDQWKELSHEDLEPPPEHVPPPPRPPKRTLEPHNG
Experiment: PTP1 assay, pNPP hydrolysis (rate of change in A405)
Format: biochemical
Details: Conc 10 uM; pNPP hydrolysis; Table 1; read-out: PTP1 Inhib % Inhib
Each entry falls in a class defined on inhibition at 10 µM; the bands are low band (below 7%), middle band (7% to below 20%), high band (20% or more)

Compound	Discrete Label
CCCCCNC(=O)C(Cc1ccc(OC(COO)COO)cc1)NC(=O)NCCC(=O)O (stereo not shown)	high band
CCCCCNC(=O)C(Cc1ccc(OC(COO)COO)cc1)NC(=O)Nc1ccc(C(=O)O)cc1 (stereo not shown)	high band
O=C(O)CCC(=O)N[C@@H](Cc1ccc(OC(C(=O)O)C(=O)O)cc1)C(=O)NCCCN1CCOCC1	low band
O=C(O)CCC(=O)N[C@@H](Cc1ccc(OC(C(=O)O)C(=O)O)cc1)C(=O)NCCCn1ccnc1	low band
CCCCCNC(=O)C(Cc1ccc(OC(C(=O)O)C(=O)O)cc1)NC(=O)C(CC(=O)O)NC(=O)OC(C)(C)C (stereo not shown)	high band
CCCCCNC(=O)[C@H](Cc1ccc(OC(C(=O)O)C(=O)O)cc1)NC(=O)[C@H](CC(=O)O)NC(=O)CCCCC	high band
CCCCCNC(=O)[C@H](Cc1ccc(OC(C(=O)O)C(=O)O)cc1)NC(=O)C1C2CCC(CC2)C1C(=O)O (stereo partly shown)	low band
CCCCCNC(=O)[C@H](Cc1ccc(OC(C(=O)O)C(=O)O)cc1)NC(=O)CC(C)(C)CC(=O)O	middle band
CCCCCNC(=O)C(Cc1ccc(OC(COO)COO)cc1)NC(=O)NCCCCCC(=O)O (stereo not shown)	middle band

====

Target: rat PTP1 (Rattus norvegicus, UniProt P20417)
Construct: a C-terminal truncation of rat PTP1 (amino acid residues 1-322); GST (N, cleaved yes); made in house; host or cells: E. coli strain TG-1 (pGEX-2T)
Test: PTP1 assay, pNPP hydrolysis (rate of change in A405)
Type: biochemical
Settings: Conc 1 uM; pNPP hydrolysis; Table 2; read-out: PTP1 Inhib PTP1N. % Inhib
Experimental: […] PTP1 activity is measured using either p-nitrophenol phosphate (pNPP) or a triphosphopeptide (that matches residues 1142 through 1153 of the β-subunit and the insulin receptor) as substrate in a 96-well microtiter plate format. An assay pH of 7.2 is used for standard assays (measured 405=9800 at pH 7.2). […]

Compound	Assay System	Unit Of Measure	inhibition at 1 µM
CCCCCNC(=O)C(Cc1ccc(OC(COO)COO)cc1)NC(=O)N(Cc1ccc(CC(=O)O)cc1)Cc1cccc(C(F)(F)F)c1 (stereo not drawn)	rat PTP1 (Rattus norvegicus, UniProt P20417)	%	4
CC(C)CC(CO)NC(=O)C(Cc1ccc(OC(COO)COO)cc1)NC(=O)CCC(=O)O (stereo not drawn)	rat PTP1 (Rattus norvegicus, UniProt P20417)	%	3
CCCCCNC(=O)C(Cc1ccc(OC(C(=O)O)C(=O)O)c(F)c1)NC(=O)CCC(=O)O (stereo not drawn)	rat PTP1 (Rattus norvegicus, UniProt P20417)	%	4

====

Parameter: inhibition at 1 µM. Scope: all listed entries.
Biological target: rat PTP1 (Rattus norvegicus, UniProt P20417)
Construct: a C-terminal truncation of rat PTP1 (amino acid residues 1-322); GST (N, cleaved yes); made in house; host or cells: E. coli strain TG-1 (pGEX-2T)
Assay: PTP1 assay, pNPP hydrolysis (rate of change in A405)
Type: biochemical
Details: Conc 1 uM; pNPP hydrolysis; Table 1; read-out: PTP1 Inhib % Inhib
Description: […] PTP1 activity is measured using either p-nitrophenol phosphate (pNPP) or a triphosphopeptide (that matches residues 1142 through 1153 of the β-subunit and the insulin receptor) as substrate in a 96-well microtiter plate format. An assay pH of 7.2 is used for standard assays (measured 405=9800 at pH 7.2). […]

Compound	inhibition at 1 µM, %
O=C(O)CCC(=O)NC(Cc1ccc(OC(COO)COO)cc1)C(=O)NCc1ccc2c(c1)OCO2 (stereo not drawn)	12
CCCCCNC(=O)[C@H](Cc1ccc(OC(C(=O)O)C(=O)O)cc1)NC(=O)CCC(N)=O	0
CCCCCNC(=O)C(Cc1ccc(OC(COO)COO)cc1)NC(=O)C(Cc1ccc(C(=O)c2ccccc2)cc1)NC(=O)CCC(=O)O (stereo not drawn) [drawing 133]	42
